# target entity: human CD73 recombinant protein (Homo sapiens, UniProt P21589)
# Construct: made in house
# Sequence (P21589 27-549): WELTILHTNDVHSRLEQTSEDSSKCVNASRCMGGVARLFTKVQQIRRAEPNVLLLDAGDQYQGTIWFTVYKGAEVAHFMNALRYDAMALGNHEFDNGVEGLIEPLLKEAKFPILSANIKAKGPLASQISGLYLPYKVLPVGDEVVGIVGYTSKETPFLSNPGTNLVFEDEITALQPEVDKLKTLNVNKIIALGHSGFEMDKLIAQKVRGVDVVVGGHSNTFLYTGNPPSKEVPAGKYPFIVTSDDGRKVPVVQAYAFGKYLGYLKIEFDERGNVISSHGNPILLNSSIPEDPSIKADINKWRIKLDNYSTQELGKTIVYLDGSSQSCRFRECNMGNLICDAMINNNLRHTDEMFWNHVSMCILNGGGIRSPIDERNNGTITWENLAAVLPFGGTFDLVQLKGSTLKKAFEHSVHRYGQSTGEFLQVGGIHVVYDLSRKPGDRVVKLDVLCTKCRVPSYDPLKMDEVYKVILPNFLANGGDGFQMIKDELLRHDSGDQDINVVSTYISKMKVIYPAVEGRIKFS
# test description: Enzyme assay, CD73 (Malachite green kit)
# Assay type: biochemical
# experimental setup: AMP added, incubation 30 minutes
property name: IC50

COc1ccc(C(OC[C@H]2O[C@@H](n3cnc4c(N(C)Cc5cccc(F)c5)ncnc43)[C@H](O)[C@@H]2O)(c2ccccc2)c2ccc(OC)cc2)cc1 : < 1 µM
CN(Cc1cccc(F)c1)c1ncnc2c1ncn2[C@@H]1O[C@H](COC(=O)Nc2ccccc2)[C@H]2OC(C)(C)O[C@H]21 : 15.1 to 30 µM
CN(Cc1cccc(F)c1)c1ncnc2c1ncn2[C@@H]1O[C@H](CO[Si](C)(C)C(C)(C)C)[C@@H](O)[C@H]1O : 1.1 to 5 µM
CN(Cc1cccc(F)c1)c1ncnc2c1ncn2[C@@H]1O[C@H](COCc2ccc3ccccc3c2)[C@@H](O)[C@H]1O : 1.1 to 5 µM
CN(Cc1cccc(F)c1)c1ncnc2c1ncn2[C@@H]1O[C@H](CO[Si](c2ccccc2)(c2ccccc2)c2ccccc2)[C@@H](O)[C@H]1O : < 1 µM

Please examine the following record next.
Lab note: measured IC50 of `CN(Cc1cccc(F)c1)c1ncnc2c1ncn2[C@@H]1O[C@H](CO[Si](c2ccccc2)(c2ccccc2)C(C)(C)C)[C@H]2OC(C)(C)O[C@H]21` was ≥ 30 µM
